The listing below reports pIC50 for compounds tested on Aβ 1-42 (Homo sapiens).
Sequence (P05067 672-713 limits assumed): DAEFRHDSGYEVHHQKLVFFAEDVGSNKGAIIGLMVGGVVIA
In plain terms, pIC50 is the concentration in mol/L turned into minus its base-10 logarithm.

Input line: Query: pIC50; subject: O=c1c2c(Cl)cc(Cl)c(O)c2ncn1N1CCOCC1
Output line: 6.36

Input line: Item under review: Br.Cc1cccnc1Cn1cnc2c(O)c(Cl)cc(Cl)c2c1=O . Reported pIC50?
Output line: 6.36

Input line: # lookup: pIC50 of CNCc1nc2c(O)c(Cl)cc(Cl)c2c(=O)n1C
Output line: 6.85

Input line: Name the reported pIC50 value associated with the compound Cc1ccc(-n2cnc3c(O)c(Cl)cc(Cl)c3c2=O)nc1
Output line: 6.11

Input line: Data request, read-out pIC50, for Cc1nc(Cn2cnc3c(O)c(Cl)cc(Cl)c3c2=O)cs1
Output line: 6.44

Input line: Any idea what pIC50 was measured for Br.CCC(C)n1cnc2c(O)c(Cl)cc(Cl)c2c1=O (stereo not shown) ?
Output line: 6.48

Input line: Query (compound): O=c1c2c(Cl)cc(Cl)c(O)c2ncn1CCc1ccccn1 ; field requested: pIC50
Output line: 6.34

Input line: Would you mind telling me what pIC50 value was observed for CCCCn1cnc2c(O)c(Cl)cc(Cl)c2c1=O ?
Output line: 6.49

Input line: Need pIC50, item O=c1c2c(Cl)cc(Cl)c(O)c2ncn1N1CCCCC1
Output line: 6.41

Input line: What value of measured pIC50 is listed for CN1CCCC1CCn1cnc2c(O)c(Cl)cc(Cl)c2c1=O (stereo not shown) ?
Output line: 6.14

Others:
Input line: For CN(C)Cc1nc2c(O)c(Cl)cc(Cl)c2c(=O)[nH]1 , what is its reported pIC50?
Output line: 6.59

Input line: Give its pIC50 value. Item: Cc1cnc(-n2cnc3c(O)c(Cl)cc(Cl)c3c2=O)s1
Output line: 5.35

Input line: Data request, read-out pIC50, for C/C=C/Cn1cnc2c(O)c(Cl)cc(Cl)c2c1=O
Output line: 6.43

Input line: Need pIC50 of Br.O=c1c2c(Cl)cc(Cl)c(O)c2ncn1Nc1ccc(F)cc1F , thanks.
Output line: 6.38

Input line: Please look up its pIC50: CC(Br)CCn1cnc2c(O)c(Cl)cc(Cl)c2c1=O (stereo not shown)
Output line: 6.24

###

Each entry below carries its recorded pIC50.
- Test system: Aβ 1-42 (Homo sapiens)
- Construct: The reaction solutions contained Aβ 1-42 at concentrations
- Test: Assay 1 Fluorometric H2O2 assay (peroxide)
- Type: biochemical
- Measurement context: inhibition of H2O2 generation by Aβ with copper
When answering, recall that pIC50 equals minus log10 of the concentration in mol/L, and write that number alone.

Input line: # input compound: O=c1c2c(Cl)cc(Cl)c(O)c2ncn1Cc1ccccn1 ; wanted: its pIC50
Output line: 6.32

Input line: Reported pIC50, compound COc1ccc(-n2cnc3c(O)c(Cl)cc(Cl)c3c2=O)cn1 : ____
Output line: 6.41

Now look at this one.
Input line: Which pIC50 is reported for this compound? Br.O=c1c2c(Cl)cc(Cl)c(O)c2ncn1CC1CC1
Output line: 6.35
